- test_name: Accumulation of paclitaxel in solid tumors
- Type: in vivo, B16/F10 tumor-bearing C57BL/6 mice
- assay_conditions: C57BL/6, mouse, tumor homogenate, iv, 2.5 mg/kg

compound	concentration at 24 h, ng/mL
CC(=O)O[C@H]1C(=O)[C@@]2(C)[C@H]([C@H](OC(=O)c3ccccc3)[C@]3(O)C[C@H](OC(=O)[C@H](O)[C@@H](NC(=O)c4ccccc4)c4ccccc4)C(C)=C1C3(C)C)[C@]1(OC(C)=O)CO[C@@H]1C[C@@H]2O [paclitaxel]	5
